Reference for the values: ChEMBL document CHEMBL3860026

Assay: Passive permeability of the compound assessed as compound recovery at 10 uM after 5 hrs by PAMPA
Format: ADME
Conditions: read-out: Drug recovery
Assay metric: recovery at 5 h, 10 µM

* CCCCCC(=O)Cc1cc(O)cc2c1C(=O)Oc1cc(O)c(C(=O)O)c(CCCCC)c1O2 [PHYSODIC ACID] | 77%
* CCCCCc1cc(O)cc2c1Oc1cc(O)cc(C(=O)CCCC)c1C(=O)O2 | 95.1%

---

Test: Cytotoxicity against human J82 cells assessed as growth inhibition after 72 hrs by Alamar Blue assay
Format: functional, cell-based
Conditions: J82, 72 h
Assay metric: EC50 (µM)

* CCCCCC(=O)Cc1cc(O)cc2c1C(=O)Oc1cc(O)c(C(=O)O)c(CCCCC)c1O2 | 38.2
* CCCCCc1c2c(cc(O)c1C(=O)O)OC(=O)c1c(cc(OC)cc1C(=O)CCCC)O2 | 3.6
* CCCCCc1cc(O)cc2c1Oc1cc(O)cc(C(=O)CCCC)c1C(=O)O2 | 48.3

---

Molecular target: Centromere-associated protein E (Homo sapiens, UniProt Q02224)
Sequence (Q02224 whole entry): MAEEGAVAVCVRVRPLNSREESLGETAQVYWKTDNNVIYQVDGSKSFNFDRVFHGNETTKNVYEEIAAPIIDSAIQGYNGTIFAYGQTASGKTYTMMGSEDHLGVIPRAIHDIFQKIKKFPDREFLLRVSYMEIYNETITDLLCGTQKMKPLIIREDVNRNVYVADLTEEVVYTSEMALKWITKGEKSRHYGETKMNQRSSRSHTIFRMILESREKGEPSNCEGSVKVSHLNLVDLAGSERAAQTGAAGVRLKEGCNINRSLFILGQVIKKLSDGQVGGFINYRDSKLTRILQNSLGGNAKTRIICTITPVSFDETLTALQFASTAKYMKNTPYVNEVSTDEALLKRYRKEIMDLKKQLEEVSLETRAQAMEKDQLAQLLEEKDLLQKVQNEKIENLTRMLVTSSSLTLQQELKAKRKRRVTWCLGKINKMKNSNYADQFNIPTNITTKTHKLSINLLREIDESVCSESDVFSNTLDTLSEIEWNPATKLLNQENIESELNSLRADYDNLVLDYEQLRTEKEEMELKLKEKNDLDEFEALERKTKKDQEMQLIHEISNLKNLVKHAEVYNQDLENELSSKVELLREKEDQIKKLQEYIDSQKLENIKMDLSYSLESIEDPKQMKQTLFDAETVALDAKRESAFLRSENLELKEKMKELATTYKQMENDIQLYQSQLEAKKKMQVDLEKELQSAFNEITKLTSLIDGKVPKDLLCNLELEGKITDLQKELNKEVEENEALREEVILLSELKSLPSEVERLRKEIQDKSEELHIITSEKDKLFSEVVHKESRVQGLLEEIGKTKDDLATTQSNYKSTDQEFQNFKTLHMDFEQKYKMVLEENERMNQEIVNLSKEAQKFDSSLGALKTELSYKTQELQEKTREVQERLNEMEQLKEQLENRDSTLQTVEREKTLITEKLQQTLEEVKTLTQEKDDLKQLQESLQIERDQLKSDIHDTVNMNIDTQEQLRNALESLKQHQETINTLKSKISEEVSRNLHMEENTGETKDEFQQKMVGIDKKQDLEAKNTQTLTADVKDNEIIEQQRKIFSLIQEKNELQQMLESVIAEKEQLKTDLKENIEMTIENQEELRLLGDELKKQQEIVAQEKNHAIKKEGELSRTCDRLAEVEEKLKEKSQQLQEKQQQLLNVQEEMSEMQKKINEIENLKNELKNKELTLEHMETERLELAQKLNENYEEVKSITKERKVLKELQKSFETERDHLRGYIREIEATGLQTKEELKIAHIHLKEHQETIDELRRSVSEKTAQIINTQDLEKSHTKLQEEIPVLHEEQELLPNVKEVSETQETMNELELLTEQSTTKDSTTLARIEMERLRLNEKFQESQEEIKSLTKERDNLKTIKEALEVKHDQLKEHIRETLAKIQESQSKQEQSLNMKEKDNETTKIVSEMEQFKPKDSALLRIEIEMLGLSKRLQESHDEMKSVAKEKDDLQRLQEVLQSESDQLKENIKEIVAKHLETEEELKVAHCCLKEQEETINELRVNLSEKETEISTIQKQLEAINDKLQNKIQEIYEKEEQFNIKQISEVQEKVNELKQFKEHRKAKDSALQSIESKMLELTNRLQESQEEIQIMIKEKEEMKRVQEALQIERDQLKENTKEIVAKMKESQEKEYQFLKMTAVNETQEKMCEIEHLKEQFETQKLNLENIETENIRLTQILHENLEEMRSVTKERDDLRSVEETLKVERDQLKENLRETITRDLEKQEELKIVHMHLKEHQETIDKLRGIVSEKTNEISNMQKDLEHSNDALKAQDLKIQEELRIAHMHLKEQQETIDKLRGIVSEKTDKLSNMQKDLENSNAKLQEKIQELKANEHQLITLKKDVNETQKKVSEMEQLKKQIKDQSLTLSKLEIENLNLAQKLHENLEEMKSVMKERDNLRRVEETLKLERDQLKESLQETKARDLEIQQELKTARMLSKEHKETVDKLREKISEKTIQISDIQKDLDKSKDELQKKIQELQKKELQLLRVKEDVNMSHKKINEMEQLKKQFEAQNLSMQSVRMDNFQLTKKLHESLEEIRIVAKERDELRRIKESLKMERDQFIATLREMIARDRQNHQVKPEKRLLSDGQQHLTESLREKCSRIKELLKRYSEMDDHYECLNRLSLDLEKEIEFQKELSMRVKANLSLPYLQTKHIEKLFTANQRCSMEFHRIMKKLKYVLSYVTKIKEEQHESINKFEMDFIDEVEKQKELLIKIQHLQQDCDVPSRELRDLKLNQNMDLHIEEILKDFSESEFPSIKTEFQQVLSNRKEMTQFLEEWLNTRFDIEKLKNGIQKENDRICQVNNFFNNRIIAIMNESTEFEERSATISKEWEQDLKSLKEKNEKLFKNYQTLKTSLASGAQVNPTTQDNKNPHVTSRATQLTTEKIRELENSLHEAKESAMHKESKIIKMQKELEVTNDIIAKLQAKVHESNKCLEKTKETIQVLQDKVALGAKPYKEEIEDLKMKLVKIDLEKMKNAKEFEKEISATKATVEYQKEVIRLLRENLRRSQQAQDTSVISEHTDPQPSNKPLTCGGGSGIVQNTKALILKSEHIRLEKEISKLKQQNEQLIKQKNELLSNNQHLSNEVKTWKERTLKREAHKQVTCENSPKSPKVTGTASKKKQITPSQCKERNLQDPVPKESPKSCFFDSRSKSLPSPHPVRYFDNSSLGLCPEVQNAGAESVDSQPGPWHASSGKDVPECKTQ
Assay: Inhibition of basal ATPase activity of human CENP-E by pyruvate kinase/lactate dehydrogenase-linked assay
pIC50: −log10 of the molar value.
Assay metric: pIC50

* CCCCCC(=O)Cc1cc(O)cc2c1C(=O)Oc1cc(O)c(C(=O)O)c(CCCCC)c1O2 [PHYSODIC ACID] | 4.53

---

Experiment: Half life in human liver microsomes at 3 uM by LC-MS/MS method
Assay type: ADME
Assay metric: half-life at 3 µM (min)

- CCCCCC(=O)Cc1cc(O)cc2c1C(=O)Oc1cc(O)c(C(=O)O)c(CCCCC)c1O2: 4.5
- CCCCCc1cc(O)cc2c1Oc1cc(O)cc(C(=O)CCCC)c1C(=O)O2: 3.5

---

Attribute: solubility kinetic at 2 h
Assay: Solubility of the compound in phosphate buffered saline at pH 6 after 2 hrs by turbidimetric method
Assay type: physicochemical
Assay metric: solubility kinetic at 2 h (µM)

• CCCCCC(=O)Cc1cc(O)cc2c1C(=O)Oc1cc(O)c(C(=O)O)c(CCCCC)c1O2 = 65
• CCCCCc1cc(O)cc2c1Oc1cc(O)cc(C(=O)CCCC)c1C(=O)O2 = 3.75

---

Assay: Intrinsic clearance in mouse liver microsomes assessed per mg of protein at 3 uM after 5 to 60 mins by LC-MS/MS method
Type: ADME
Conditions: read-out: CLH
Attribute: microsomal CLint at 3 µM
Assay metric: microsomal CLint at 3 µM (µL/min/mg)

* CCCCCC(=O)Cc1cc(O)cc2c1C(=O)Oc1cc(O)c(C(=O)O)c(CCCCC)c1O2 | 61.6
* CCCCCc1cc(O)cc2c1Oc1cc(O)cc(C(=O)CCCC)c1C(=O)O2 | 452

---

Experiment: Half life in mouse liver microsomes at 3 uM by LC-MS/MS method
Format: ADME
Attribute: half-life at 3 µM
Assay metric: half-life at 3 µM

- CCCCCc1cc(O)cc2c1Oc1cc(O)cc(C(=O)CCCC)c1C(=O)O2: 3.1 min
- CCCCCC(=O)Cc1cc(O)cc2c1C(=O)Oc1cc(O)c(C(=O)O)c(CCCCC)c1O2 [PHYSODIC ACID]: 22.5 min

---

Test: Cytotoxicity against human UM-UC-3 cells assessed as growth inhibition after 72 hrs by Alamar Blue assay
Type: functional, cell-based
Conditions: UMUC3, 72 h
Attribute: EC50
Assay metric: EC50 (µM)

- CCCCCC(=O)Cc1cc(O)cc2c1C(=O)Oc1cc(O)c(C(=O)O)c(CCCCC)c1O2 [PHYSODIC ACID]: 31.8
- CCCCCc1cc(O)cc2c1Oc1cc(O)cc(C(=O)CCCC)c1C(=O)O2: 30.5
- CCCCCc1c2c(cc(O)c1C(=O)O)OC(=O)c1c(cc(OC)cc1C(=O)CCCC)O2 [LOBARIC ACID]: 3.7
